Values from patent US10010520B2

# Tested on: PC-3 cells
# experiment: CellTiter-Glo cell viability, drugs alone or in combination, PC-3 cells
# Format: cell-based
# cond: Homo sapiens, 72 hrs, read-out: (Bs)50, IC50 of drug B when used alone
readout.type: pIC50
By convention, pIC50 is the negative base-10 log of a molar concentration.

Notebook: C[C@]12CC[C@H](O)CC1=CC[C@@H]1[C@@H]2CC[C@]2(C)C(c3cccnc3)=CC[C@@H]12 [Abiraterone, abiraterone, reference compound] , pIC50 read as 4.00

* * *

# System: A549 cells
# experiment: CellTiter-Glo cell viability, drugs alone or in combination, A549 cells
# Assay type: cell-based, human
# cond: Homo sapiens, A549, 72 h, read-out: (As)50, IC50 of drug A when used alone
readout.type: pIC50
By convention, pIC50 is the negative base-10 log of a molar concentration.

Notebook: S=C=NCCc1ccccc1 [Phenethyl isothiocyanate] , pIC50 read as 4.66

* * *

# Test system: Human breast cancer MDA-MB-231 cells
# experiment: CellTiter-Glo cell viability, drugs alone or in combination, MDA-MB-231 cells
# cond: Homo sapiens, MDA-MB-231, 72 h, read-out: (As)50, IC50 of drug A when used alone
readout.type: IC50 (µM)
Dear colleague, please return just the value in µM, with no unit written.

Notebook: S=C=NC1CCCCC1 [cyclohexyl isothiocyanate] , IC50 read as 37.5

* * *

# Test system: human leukemia HL-60 cells
# experiment: CellTiter-Glo cell viability, drugs alone or in combination, HL-60 cells
# Assay type: cell-based
# cond: 72 hrs, read-out: (As)50, IC50 of drug A when used alone
readout.type: IC50

Notebook: S=C=NCCc1ccccc1 [Phenethyl isothiocyanate] , IC50 read as 6.66 µM

* * *

# Tested on: human gastric cancer AGS cells
# experiment: CellTiter-Glo cell viability, drugs alone or in combination, AGS cells
# cond: Homo sapiens, AGS, 72 h, read-out: (Bs)50, IC50 of drug B when used alone, AGS cells
readout.type: IC50 (nM)
Dear colleague, please return just the value in nM, with no unit written.

Notebook: CC(=O)O[C@@]12CO[C@@H]1C[C@H](O)[C@@]1(C)C(=O)[C@H](O)C3=C(C)[C@@H](OC(=O)[C@H](O)[C@@H](NC(=O)OC(C)(C)C)c4ccccc4)C[C@@](O)([C@@H](OC(=O)c4ccccc4)[C@H]21)C3(C)C [docetaxel, reference compound] , IC50 read as 9.74

Notebook: COc1cccc2c1C(=O)c1c(O)c3c(c(O)c1C2=O)C[C@@](O)(C(=O)CO)C[C@@H]3O[C@H]1C[C@H](N)[C@H](O)[C@H](C)O1 [adriamycin, reference compound] , IC50 read as 53.4

* * *

# System: PC-3 cells
# experiment: CellTiter-Glo cell viability, drugs alone or in combination, PC-3 cells
# Format: cell-based
# cond: Homo sapiens, 72 hrs, read-out: (As)50, IC50 of drug A when used alone
readout.type: IC50 (µM)
Dear colleague, please return just the value in µM, with no unit written.

Notebook: S=C=NCCc1ccccc1 [Phenethyl isothiocyanate] , IC50 read as 52.6

* * *

# System: human kidney cancer cells 786-O
# experiment: CellTiter-Glo cell viability, drugs alone or in combination, 786-O cells
# cond: 786-0, 72 h, read-out: (As)50, IC50 of drug A when used alone
readout.type: pIC50
By convention, pIC50 is the negative base-10 log of a molar concentration.

Form field pIC50 for item S=C=NC1CCCCC1 [cyclohexyl isothiocyanate] on human kidney cancer cells 786-O: 3.97

* * *

# Tested on: Jurkat E6-1 cells
# experiment: CellTiter-Glo cell viability, drugs alone or in combination, Jurkat E6-1 cells
# Type: cell-based, human
# cond: Homo sapiens; Jurkat E6-1 cells; 72 hrs; read-out: (As)50, IC50 of drug A when used alone
readout.type: pIC50
By convention, pIC50 is the negative base-10 log of a molar concentration.

Notebook: S=C=NC1CCCCC1 [cyclohexyl isothiocyanate] , pIC50 read as 4.38

* * *

# Tested on: HT29 cells
# experiment: CellTiter-Glo cell viability, drugs alone or in combination, HT29 cells
# cond: Homo sapiens, HT-29, 72 h, read-out: (Bs)50, IC50 of drug B when used alone
readout.type: IC50

Notebook: Nc1nc2c(c(=O)[nH]1)N(C=O)C(CNc1ccc(C(=O)N[C@@H](CCC(=O)O)C(=O)O)cc1)CN2 (stereo partly shown) [Leucovorin, reference compound] , IC50 read as > 100 µM
